CHO Cyno INSR values by entry
Assay system: T1, cynomolgus insulin receptor (INSR) on CHOK1 cells (cyno, UniProt A0A7N9D6H3 48-1390)
T1 construct: whole, on cells; CHOK1 cells over-expressing cyno INSR; also called cynomologous INSR ortholog; monkey INSR
Assay notes: binding to CHO cells expressing cyno INSR; 2nd column headed CHO Cyno INSR (same numbers as the 1st); quantity and unit not printed [cont'd]
Answer with a number only.

# count of solved cases: 3
XPA.15.247.2.018 Fab (Fab, V domains shown, Monomeric Fab; also called XPA.247.2.018) VH: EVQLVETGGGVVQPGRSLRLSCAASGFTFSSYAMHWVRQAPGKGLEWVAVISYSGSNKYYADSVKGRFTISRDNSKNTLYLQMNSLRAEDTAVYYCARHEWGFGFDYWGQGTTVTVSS VL: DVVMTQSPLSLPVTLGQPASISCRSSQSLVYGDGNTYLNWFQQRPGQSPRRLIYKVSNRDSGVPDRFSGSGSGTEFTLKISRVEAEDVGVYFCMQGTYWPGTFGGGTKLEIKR: 2.62
RHF.15.05896.068 (Fab, V domains shown, Untagged Fab) VH: EVQLVETGGGVVQPGRSLRLSCAASGFKFSSYAMHWVRQAPGKGLEWVAVISYSGGNKYYADSVKGRFTISRDNSKNTLYLQMNSLRAEDTAVYYCARHEWGFGYDYWGQGTTVTVSS VL: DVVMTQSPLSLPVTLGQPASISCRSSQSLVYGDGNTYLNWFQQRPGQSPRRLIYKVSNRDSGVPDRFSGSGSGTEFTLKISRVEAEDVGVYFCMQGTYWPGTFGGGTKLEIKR: 0.854
RHF.15.05896.075 (Fab, V domains shown, Untagged Fab) VH: EVQLVETGGGVVQPGRSLRLSCAASGFKFSSYAMHWVRQAPGKGLEWVAVISYSGSNKYYADSVKGRFTISRDNSKNTLYLQMNSLRAEDTAVYYCARHEWGFGYDYWGQGTTVTVSS VL: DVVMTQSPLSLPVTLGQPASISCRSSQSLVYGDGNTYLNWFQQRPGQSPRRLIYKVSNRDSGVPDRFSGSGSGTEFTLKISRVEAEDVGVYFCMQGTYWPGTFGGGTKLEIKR: 0.728

Q: Please give the documented CHO Cyno INSR of RHF.15.05896.020 (Fab, V domains shown, Untagged Fab) VH: EVQLVETGGGVVQPGRSLRLSCAASGFKFSSYAMHWVRQAPGKGLEWVAVISWSGSNKYYADSVKGRFTISRDNSKNTLYLQMNSLRAEDTAVYYCARHEWGFGFDEWGQGTTVTVSS VL: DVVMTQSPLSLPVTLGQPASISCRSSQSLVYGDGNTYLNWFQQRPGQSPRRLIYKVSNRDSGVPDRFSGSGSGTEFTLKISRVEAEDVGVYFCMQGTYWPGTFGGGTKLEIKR
Ans: 0.911

Measured values drawn from patent US20180251562A1 for this set.
